# assay-text: Soluble peptide degradation, Cells condition (LC-MS)
# Type: in vitro ADME, human
# experimental-conditions: human, cells or culture medium
Where a SMILES comes first, the peptide text is derived from it. [ ]: non-standard residue; d: D form. βAla = NCCC(=O)O
metric: remaining at 24 h

List reported remaining at 24 h for each of these compounds:
1. CSCC[C@H](NC(=O)[C@H](CC(C)C)NC(=O)[C@H](CC(=O)O)NC(=O)[C@H](C)NC(=O)[C@@H](NC(=O)[C@H](CC(C)C)NC(=O)[C@H](CCCCN)NC(=O)CCNC(C)=O)C(C)C)C(=O)N[C@@H](C)C(=O)N[C@@H](CO)C(=O)N[C@@H](C)C(=O)N[C@@H](CCC(=O)O)C(=O)NCCC(N)=O [KLVAD-LM] (Ac-[βAla]KLVADLMASAE[βAla]-NH2)
2. CC(=O)NCCC(=O)N[C@@H](CCCCN)C(=O)N[C@@H](CC(C)C)C(=O)N[C@H](C(=O)N[C@@H](C)C(=O)N[C@@H](CC(=O)O)C(=O)N1CCC[C@H]1C(=O)N[C@@H](CC(C)C)C(=O)N[C@@H](C)C(=O)N[C@@H](CO)C(=O)N[C@@H](C)C(=O)N[C@@H](CCC(=O)O)C(=O)NCCC(N)=O)C(C)C [KLVAD-PL] (Ac-[βAla]KLVADPLASAE[βAla]-NH2)

stdout:
87%
83%
